Reference for the values: ChEMBL document CHEMBL3751706

This listing pairs compounds with measured half-life.
# TEST_PROTOCOL: Half life in mouse liver homogenates by LC-MS analysis
# Type: ADME, tissue-based
# CONDITION_LABEL: liver homogenate
Number only, in h; omit the unit.

INSERT INTO results (compound, value_unit, measurement) VALUES
  ('CC[C@@]1(O)C(=O)OCc2c1cc1n(c2=O)Cc2cc3ccccc3nc2-1 [CAMPTOTHECIN]', 'h', 1.75);

In the following, a different compound is considered.
Query string: Give a short answer stating reported half-life for O=C(O)CCCc1ccc(N(CCCl)CCCl)cc1 [CHLORAMBUCIL] .
Result string: 1

----------
# TEST_PROTOCOL: Chemical stability of the compound at pH 5.2 assessed as half life by LC-MS analysis
# Type: physicochemical
# CONDITION_LABEL: buffer
MEASURED_ENDPOINT: half-life

Some entries whose results are on file:
INSERT INTO assay_data (structure_string, measured_endpoint, measurement) VALUES
  ('CC[C@@]1(O)C(=O)OCc2c1cc1n(c2=O)Cc2cc3ccccc3nc2-1', 'half-life', '< 96 h'),
  ('N=C(N)NCCC[C@@H]1NC(=O)[C@H](COC(=O)CCCc2ccc(N(CCCl)CCCl)cc2)NC(=O)[C@@H](Cc2ccccc2)NC(=O)[C@H](CC(=O)O)NC(=O)CNC1=O', 'half-life', '< 12 h'),
  ('CC[C@@]1(OC(=O)NCCCC[C@@H]2NC(=O)[C@@H](Cc3ccccc3)NC(=O)[C@H](CC(=O)O)NC(=O)CNC(=O)[C@H](CCCNC(=N)N)NC2=O)C(=O)OCc2c1cc1n(c2=O)Cc2cc3ccccc3nc2-1', 'half-life', '> 96 h'),
  ('O=C(O)CCCc1ccc(N(CCCl)CCCl)cc1', 'half-life', '3.33 h');

Query string: Give a short answer stating reported half-life for N=C(N)NCCC[C@@H]1NC(=O)[C@H](CCCCNC(=O)CCCc2ccc(N(CCCl)CCCl)cc2)NC(=O)[C@@H](Cc2ccccc2)NC(=O)[C@H](CC(=O)O)NC(=O)CNC1=O .
Result string: < 12 h

----------
This listing pairs compounds with measured half-life.
# TEST_PROTOCOL: Chemical stability of the compound at pH 7.4 assessed as half life by LC-MS analysis
# Format: physicochemical
# CONDITION_LABEL: buffer

Some entries whose results are on file:
INSERT INTO measurements (compound, measurement) VALUES
  ('N=C(N)NCCC[C@@H]1NC(=O)[C@H](CCCCNC(=O)CCCc2ccc(N(CCCl)CCCl)cc2)NC(=O)[C@@H](Cc2ccccc2)NC(=O)[C@H](CC(=O)O)NC(=O)CNC1=O', '< 12 h'),
  ('CC[C@@]1(OC(=O)NCCCC[C@@H]2NC(=O)[C@@H](Cc3ccccc3)NC(=O)[C@H](CC(=O)O)NC(=O)CNC(=O)[C@H](CCCNC(=N)N)NC2=O)C(=O)OCc2c1cc1n(c2=O)Cc2cc3ccccc3nc2-1', '> 96 h');

Query string: Give a short answer stating reported half-life for CC[C@@]1(O)C(=O)OCc2c1cc1n(c2=O)Cc2cc3ccccc3nc2-1 [CAMPTOTHECIN] .
Result string: < 96 h

Query string: Give a short answer stating reported half-life for O=C(O)CCCc1ccc(N(CCCl)CCCl)cc1 [CHLORAMBUCIL] .
Result string: 3.33 h

Query string: Give a short answer stating reported half-life for N=C(N)NCCC[C@@H]1NC(=O)[C@H](COC(=O)CCCc2ccc(N(CCCl)CCCl)cc2)NC(=O)[C@@H](Cc2ccccc2)NC(=O)[C@H](CC(=O)O)NC(=O)CNC1=O .
Result string: < 12 h
